Molecular target: HLA-B*27:03
Experiment: IEDB peptide-MHC binding, purified MHC/direct/fluorescence; filed as Kd, often an IC50 or EC50 that approximates it; bounds were set here for any values at or beyond the usual limits of such assays
Settings: source organism: Toxoplasma gondii RH
pKd: −log10 of the molar value.
reported endpoint: pKd

[Q] Endpoint output: pKd of THADAHTQL . Value?
[A] ≤ 4.70

====

Target: HLA-B*45:06
Assay: IEDB peptide-MHC binding, purified MHC/competitive/fluorescence; filed as Kd, often an IC50 or EC50 that approximates it; bounds were set here for any values at or beyond the usual limits of such assays
Settings: source organism: Influenza A virus (A/Fort Monmouth/1/1947-mouse adapted(H1N1))
reported endpoint: Kd

[Q] Provide the documented Kd with HLA-B*45:06 as the system for MQIRGFVYF
[A] ≥ 5 µM

The measurements presented in this section are drawn from the Immune Epitope Database (IEDB).
